The following molecules are listed with their measured composite z-score values.
Test: COS7 lysate on small-molecule microarray, probe aHis, 635 nm (AID 1123);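 further: z-score combines 667nm fluorescence intensity with signal-to-noise per printed compound spot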
Details: COS7 cell lysate, fluorescence, higher = more signal
observation-type: composite z-score

INSERT INTO assay_data (molecule, assay_value) VALUES
  ('O=C1N(Cc2ccccc2)c2ccccc2C[C@@]12N=C(c1ccc(OCCCO)cc1)O[C@H]2c1ccccc1', 2.47),
  ('C=CCN1C(=O)[C@]2(O[C@H](CCO)[C@@H]([Si](C)(C)c3ccc(OC)cc3)[C@@H]2C)c2cc(N3C(=O)c4ccccc4Oc4ccccc43)ccc21', 0.506),
  ('O=C1NC(=O)C2C1C=CC(C(O)C(O)CO)N2Nc1ccccn1 (stereo unspecified)', 0.344),
  ('C=CCNC(=O)[C@H]1[C@@H]2C(=O)O[C@@H](c3ccccc3)[C@@H](c3ccccc3)N2[C@@H](c2ccc(OCCO)cc2)[C@]12C(=O)N(C(=O)OCCOC)c1ccc(C#CCC(C(=O)OC)C(=O)OC)cc12', 2.67),
  ('COCCOC(=O)N1C(=O)[C@@]2(c3cc(C#CCNC(N)=O)ccc31)[C@H](C(N)=O)[C@H]1C(=O)O[C@H](c3ccccc3)[C@H](c3ccccc3)N1[C@@H]2c1ccc(O)cc1', 0.609),
  ('COC(=O)[C@@]1(Cc2ccc(F)cc2)[C@H]2c3cc(C(=O)N4CCCC4)n(C[C@H](O)CO)c3C[C@H]2CN1C(=O)c1ccccc1', 2.88);
